Recorded AC50 by entry
# Experimental target: Microphthalmia-associated transcription factor (Homo sapiens, UniProt O75030)
# Sequence (O75030 whole entry): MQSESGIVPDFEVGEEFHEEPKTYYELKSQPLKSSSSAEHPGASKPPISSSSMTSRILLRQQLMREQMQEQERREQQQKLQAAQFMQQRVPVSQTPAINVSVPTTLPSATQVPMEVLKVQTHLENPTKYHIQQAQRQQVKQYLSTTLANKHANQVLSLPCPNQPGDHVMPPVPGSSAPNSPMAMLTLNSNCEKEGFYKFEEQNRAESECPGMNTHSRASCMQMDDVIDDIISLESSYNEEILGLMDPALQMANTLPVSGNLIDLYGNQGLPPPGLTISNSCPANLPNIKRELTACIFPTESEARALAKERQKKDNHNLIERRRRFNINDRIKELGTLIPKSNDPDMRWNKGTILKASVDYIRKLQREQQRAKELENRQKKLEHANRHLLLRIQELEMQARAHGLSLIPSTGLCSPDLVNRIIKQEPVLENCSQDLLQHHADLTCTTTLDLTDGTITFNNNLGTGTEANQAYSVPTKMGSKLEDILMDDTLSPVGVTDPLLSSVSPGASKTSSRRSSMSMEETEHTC
# Assay name: TRPM1 promoter luciferase signal decrease, dose response, MITF inhibitor project, cell-based, SK-MEL-5, cherry-picked, set 3 (AID 493073);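 note: SK-MEL-5 melanoma cells with luciferase driven by the MITF target TRPM1 promoter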
# Assay type: functional
Active and inactive are the calls of the source.

Example molecules with recorded AC50:
Molecule	AC50
CCCC(=O)NC(c1ccc(OC)c(OC)c1)c1cc(Cl)c2cccnc2c1O (stereo not drawn)	9.06 µM (active)
O=C(CCl)N(c1ccccc1)C1CCS(=O)(=O)C1 (stereo not drawn)	9.35 µM (active)
O=C(CSc1nnnn1-c1ccc(O)cc1)Nc1cccc(S(=O)(=O)N2CCCC2)c1	50.2 µM (active)
C/N=c1\scc(-c2ccccc2F)n1/N=C/c1ccc[nH]1	0.019 µM (active)
CCn1c(/C=C/Nc2ccccc2)[n+](CC)c2cc(Cl)c(Cl)cc21	14.5 µM (active)

The value of AC50 measured for the molecule CC(=O)CSc1ccc(-c2nc3cc(C)c(C)cc3[nH]2)cn1 turned out to be 3.67 µM (active)

The value of AC50 measured for the molecule O=C1C([N-]S(=O)(=O)c2cccs2)=C([n+]2ccccc2)C(=O)c2ccccc21 turned out to be 1.07 µM (active)

The value of AC50 measured for the molecule O=C1C(Cl)=C(N2CCN(c3ccccc3[N+](=O)[O-])CC2)C(=O)c2ccccc21 turned out to be 3.59 µM (active)

* * *

Recorded AC50 by entry
# Experimental target: Paired box protein Pax-8 (Homo sapiens, UniProt Q06710)
# Sequence (Q06710 whole entry): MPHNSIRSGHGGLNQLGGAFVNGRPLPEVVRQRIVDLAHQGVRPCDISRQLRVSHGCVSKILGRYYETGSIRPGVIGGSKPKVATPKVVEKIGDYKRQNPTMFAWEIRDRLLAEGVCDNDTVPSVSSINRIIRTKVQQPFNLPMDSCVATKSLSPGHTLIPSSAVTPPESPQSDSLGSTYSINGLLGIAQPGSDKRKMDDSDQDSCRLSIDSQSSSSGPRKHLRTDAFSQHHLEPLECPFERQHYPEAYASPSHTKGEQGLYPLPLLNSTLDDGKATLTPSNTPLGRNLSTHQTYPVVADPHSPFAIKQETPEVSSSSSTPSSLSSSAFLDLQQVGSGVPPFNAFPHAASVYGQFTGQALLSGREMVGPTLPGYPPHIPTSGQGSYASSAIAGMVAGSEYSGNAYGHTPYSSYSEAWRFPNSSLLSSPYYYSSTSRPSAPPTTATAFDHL
# Assay name: inhibitors of PAX8-driven TPO luciferase reporter, dose response, RMG-I cells, cherry-pick (AID 687027);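 note: luciferase reporter driven by Pax8 target thyroperoxidase promoter measured by SteadyGlo luminescence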
# Format: functional, cell-based
Active and inactive are the calls of the source.

Compound	AC50
C[C@@H]1CN([C@H](C)CO)C(=O)c2c(c3ccccc3n2C)-c2ccccc2CO[C@H]1CN(C)S(=O)(=O)c1cccc(F)c1	19.2 µM (active)
CCN(CC)c1ccc2c(cc1=O)[C@@H](NC)CCc1cc(OC)c(OC)c(OC)c1-2	2.9 µM (active)
C[C@H]1CCCCO[C@@H](CN(C)C(=O)NC2CCCCC2)[C@@H](C)CN([C@@H](C)CO)C(=O)c2cc(NC(=O)Nc3ccc(C(F)(F)F)cc3)ccc2O1	2.54 µM (active)
COc1cc2nc(C3CCC3)nc(N3CCN(c4ccccc4OC)CC3)c2cc1OC	18.9 µM (active)
C=C1C(=O)C23C(O)C1CCC2C12CCCC(C)(COC(C)=O)C1C(O)C3(O)OC2 (stereo not given)	1.86 µM (active)
C/N=c1\scc(-c2ccccc2F)n1/N=C/c1ccc[nH]1	< 0.26 µM (active)
O=C(Nc1ccc(C(F)(F)F)cc1)Nc1ccc2c(c1)[C@H]1C[C@H](CC(=O)N3CCc4ccccc4C3)O[C@H](CO)[C@H]1O2	7.26 µM (active)
C[C@@H]1CN([C@@H](C)CO)C(=O)c2cc(NC(=O)Cc3ccccc3)ccc2O[C@@H](C)CCCCO[C@H]1CN(C)Cc1ccc(C(F)(F)F)cc1	9.1 µM (active)
C[C@H]1CCCCO[C@H](CN(C)C(=O)NC2CCCCC2)[C@@H](C)CN([C@@H](C)CO)C(=O)c2cc(NC(=O)Nc3ccc(C(F)(F)F)cc3)ccc2O1	8.03 µM (active)

In the following, a different compound is considered.
Given the compound CCOC(=O)Nc1ccc2c(c1)N(C(=O)CCCl)c1ccccc1[S@]2=O and test system Paired box protein Pax-8 (Homo sapiens, UniProt Q06710), the measured AC50 is 4.57 µM (active)

* * *

# Experimental target: Protein RecA (Mycobacterium tuberculosis, UniProt P9WHJ3)
# Assay name: Fluorescence Cell-Free Homogeneous Dose Retest to Identify Inhibitors of RecA-Intein Splicing Activity. [Related pubchem assays (depositor defined):AID2097, AID2223, AID489010, AID492950]
# Format: functional
Activity calls are given as the source filed them.
Lab note: assign the record to one of active, inactive

Known results for compounds:
Compound	Assigned class
Nc1cc(N)c(OCC(F)(F)F)cc1OCC(F)(F)F	active
Cc1[nH]n(C(C)(C)C)c(=O)c1Sc1ccccc1	active
Cc1noc(C)c1CSCC(=O)Oc1ccc(N(C)S(=O)(=O)c2ccc(Cl)cc2)cc1	active
Cc1ccc(Nc2cc(C)nn2-c2nc(C)cc(O)n2)cc1	active
O=C(CSC1=NCCS1)Nc1nc(-c2ccccc2)cs1	active
COc1ccc2nc(SCC(=O)NN)cc(C)c2c1	active
O=C1C(Cl)=C(NCc2cccnc2)C(=O)c2ccccc21	active
O=C1C([N-]S(=O)(=O)c2cccs2)=C([n+]2ccccc2)C(=O)c2ccccc21	active
Nc1nc(C(=O)N2CCOCC2)nn1C(=O)c1ccc(Cl)cc1	active
CN(C)c1ncc(C2=C(Cl)C(=O)C(N3CCCC3)=C(Cl)C2=O)s1	active

Just curious, what result did O=C(CCNc1cccc(F)c1)c1cccc([N+](=O)[O-])c1 get here? inactive

Just curious, what result did O=C1C(O)=C/C(=N\c2ccccc2O)c2ccccc21 get here? active

* * *

# Experimental target: Zinc finger protein mex-5 (Caenorhabditis elegans, UniProt Q9XUB2)
# Sequence (Q9XUB2 whole entry): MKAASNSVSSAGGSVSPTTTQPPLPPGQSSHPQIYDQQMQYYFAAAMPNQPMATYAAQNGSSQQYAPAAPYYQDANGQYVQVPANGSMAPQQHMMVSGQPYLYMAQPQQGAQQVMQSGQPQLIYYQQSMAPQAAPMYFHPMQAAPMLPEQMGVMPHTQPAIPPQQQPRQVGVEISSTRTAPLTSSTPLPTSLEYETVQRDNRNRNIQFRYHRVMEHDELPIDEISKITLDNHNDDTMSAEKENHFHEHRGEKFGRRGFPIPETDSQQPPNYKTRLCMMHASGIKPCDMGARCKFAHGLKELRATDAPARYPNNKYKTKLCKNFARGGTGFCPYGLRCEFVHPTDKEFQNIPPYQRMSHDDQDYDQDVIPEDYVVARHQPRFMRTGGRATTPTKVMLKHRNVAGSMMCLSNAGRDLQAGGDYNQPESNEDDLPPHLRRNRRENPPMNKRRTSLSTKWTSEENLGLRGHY
# Assay name: MEX-5/TCR-2 RNA interaction inhibitors, dose response, biochemical, C. elegans, fluorescence polarization (AID 1960)
The source made the active and inactive calls.
Endpoint label: EC50

Example compounds with recorded EC50:
Compound	Endpoint label	Value observed
COc1ccc(C2C(C#N)=C(N)OC3=C2C(=O)CCC3)c(OC)c1OC (centres undefined)	EC50	> 300 µM (not active)
O=C(NCCF)C1Nc2ccc(OC(F)(F)F)cc2C2C=CCC12 (centres undefined)	EC50	> 300 µM (not active)
CC(C)CNC(=O)c1ccc(C2SCC(=O)N2Cc2ccccc2)cc1 (centres undefined)	EC50	> 300 µM (not active)
N#Cc1ccccc1CN1C(=O)S/C(=C/c2cccn2-c2cccc(C(=O)O)c2)C1=O	EC50	> 300 µM (not active)
CC(C)(C)OC(=O)NCCCC1=CC2=CC(=O)C(C)(OC(=O)c3ccc(Cl)nc3)C(=O)C2=CO1 (centres undefined)	EC50	20 µM (active)
O=C(O)CCc1ccc(-c2cccs2)n1-c1ccc(C(=O)O)cc1	EC50	> 300 µM (not active)
CC(C)(C)OC(=O)NCCCCC1=CC2=CC(=O)C(C)(OC(=O)c3cnc4ccccc4n3)C(=O)C2=CO1 (centres undefined)	EC50	15 µM (active)
N=c1c(S(=O)(=O)c2ccc(Cl)cc2)cc2c(=O)n3ccccc3nc2n1CCc1ccccc1	EC50	1.39 µM (active)

In the following, a different compound is considered.
The value of EC50 measured for the compound Cc1ccc(Oc2nc(-c3ccccn3)nc3ccccc23)cc1 turned out to be 6.96 µM (active)

* * *

# Experimental target: Streptokinase A (Streptococcus pyogenes serotype M1)
# Sequence (P10520 whole entry): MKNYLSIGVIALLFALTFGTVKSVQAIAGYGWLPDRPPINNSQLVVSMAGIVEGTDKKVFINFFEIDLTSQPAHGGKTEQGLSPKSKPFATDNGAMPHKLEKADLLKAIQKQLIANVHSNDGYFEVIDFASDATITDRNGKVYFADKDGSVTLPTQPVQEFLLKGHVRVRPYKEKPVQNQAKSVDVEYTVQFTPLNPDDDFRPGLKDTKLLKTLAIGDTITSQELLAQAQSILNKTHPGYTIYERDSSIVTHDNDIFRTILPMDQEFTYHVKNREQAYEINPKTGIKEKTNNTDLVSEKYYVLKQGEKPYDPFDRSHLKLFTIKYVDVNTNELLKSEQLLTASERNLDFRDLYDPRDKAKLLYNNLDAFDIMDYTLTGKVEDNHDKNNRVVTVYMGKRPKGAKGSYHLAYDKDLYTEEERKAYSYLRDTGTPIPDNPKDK
# Assay name: S. pyogenes streptokinase expression inhibitors, potency, dose response, plasminogen activation absorbance, OD405 (AID 1914);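 note: secreted streptokinase activity via plasminogen activation per viability signal from cell pellet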
# Type: functional, Streptococcus pyogenes M1 GAS
The source made the active and inactive calls.
Recorded EC50 by entry

Molecule	EC50
Cc1ccccc1-c1cc(C(=O)Nc2sc(C(=O)OC(C)C)c(C)c2C#N)c2ccccc2n1	> 150 µM (not active)
Oc1c(Cl)cc(Cl)cc1C(C#Cc1ccccc1)N1CCOCC1 (stereo not given)	26.8 µM (active)
Cc1ccc(Oc2nc(-c3ccccn3)nc3ccccc23)cc1	> 150 µM (not active)
COc1ccc(NC(=O)c2[nH]cnc2C(=O)N[C@@H](CC(C)C)C(=O)OC(C)(C)C)cc1	> 150 µM (not active)

In the following, a different molecule is considered.
The value of EC50 measured for the molecule CN(C)C=O.COCCn1c(SCc2nc(O)c3c(C)c(C(=O)OC)sc3n2)nc2ccccc21 turned out to be > 150 µM (not active)

* * *

# Experimental target: Nonstructural protein 1 (Influenza A virus)
# Sequence (Q194T2 whole entry): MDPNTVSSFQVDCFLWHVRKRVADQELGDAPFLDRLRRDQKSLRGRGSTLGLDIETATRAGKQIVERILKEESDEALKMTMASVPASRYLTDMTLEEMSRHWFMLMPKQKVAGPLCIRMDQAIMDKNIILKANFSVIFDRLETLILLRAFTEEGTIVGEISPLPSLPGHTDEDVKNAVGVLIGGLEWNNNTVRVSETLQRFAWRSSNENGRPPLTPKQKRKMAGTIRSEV
# Assay type: functional, Influenza A virus (A/California/07/2009(H1N1))
The source made the active and inactive calls.
Endpoint label: IC50

Example compounds with recorded IC50:
Smiles string	Value observed
Cc1ccc(S(=O)(=O)NC2=C(N3CCN(c4ccccc4F)CC3)C(=O)c3ccccc3C2=O)cc1	32.5 µM (active)
Cc1cc(C)n(CC(=O)N/N=C/c2cc([N+](=O)[O-])ccc2O)n1	10.8 µM (active)
c1ccc(N=Nc2ccc3cccccc2-3)cc1	10.8 µM (active)
C=CCN1C(=O)/C(=N\Nc2c(C)n(C)n(-c3ccccc3)c2=O)C(=O)NC1=S	2.29 µM (active)
CC(C)(C)c1nnc(N/N=C/c2ccccc2O)n(N)c1=O	5.93 µM (active)
Oc1c(CN2CCOCC2)cc(COCc2ccccc2)c2cccnc12	4.95 µM (active)

The value of IC50 measured for the compound Oc1ccc(C=NNC(=S)Nc2ccc(F)cc2)c(O)c1 turned out to be 14.6 µM (active)

The value of IC50 measured for the compound Cc1cc([N+](=O)[O-])c(NC2CCCCC2)c([N+](=O)[O-])c1 turned out to be 41.5 µM (active)

The value of IC50 measured for the compound COC(=O)c1ccc(CSc2nc3c(c(=O)n2-c2ccccc2)SCC3)o1 turned out to be > 100 µM (active)
